assay: yeast display, Sf9 membrane polyspecificity reagent, FACS + sequencing; frameworks hold sequencing errors
PROPERTY LABEL: polyreactivity (PSR sort gate)

sequence_chain=QVQLVESGGGLVQAGGSLRLSCAASGITFGYYAMGWYRQAPGKERELVASISWSGDSTYYADSVKGRFTISRDNAKNTVYLQMNSLKPEDTAVYYCNRGSSWEYGAEYNYWGQGTQVTVSS property_label="polyreactivity (PSR sort gate)" test_value="low polyreactivity"
sequence_chain=QVQLVESGGGLVQAGGSLRLSCAASGFIFRGYAMGWYRQAPGKERELVAAINYSGGSTYYADSVKGRFTISRDNAKNTVYLQMNSLKPEDTAVYYCAAGKRGDDDYWGQGTQVTVSS property_label="polyreactivity (PSR sort gate)" test_value="high polyreactivity"
sequence_chain=QVQLVESGGGLVQAGGSLRLSCAACGFTFLRYVMGWYRQAPGKERELVAAISYSGGRTYYADSVKGRFTISRDNAKNTVYLQMNSLKPEDTAVYYCAAARPVGYPPVLKYAYWGQGTQVTVSS property_label="polyreactivity (PSR sort gate)" test_value="high polyreactivity"
sequence_chain=QVQLVESGVGLVQAGGSLRLSCAASGRTISYNARGWYRQAPGKEREFVADINYSAGSTYYADSVKGRFTISRDNAKNTGKLQMNRLKPEDTAVYYCAAKYYGEMYSWGQGTQVSVSS property_label="polyreactivity (PSR sort gate)" test_value="low polyreactivity"

Next sequence, please.
## Task Return polyreactivity (PSR sort gate) for the following sequence: "QVQLVESGGGLVQAGGSLRLSCAASGLIIYYYAMGWYRQAPGKERELVAAITWTAGSTSYADSVKGRFTISRDNAKNTVYLQMNSLKPEDTAVYYCAADYRHDTFSNQYDYWGQGTQVTVSS"
## Result low polyreactivity

====

experiment: yeast display, Sf9 membrane polyspecificity reagent, FACS + sequencing; frameworks hold sequencing errors
PROPERTY LABEL: polyreactivity (PSR sort gate)

sequence_chain=QVQLVESGGGLVQAGGSLRLSCAASGSTFHRYAMGWYRQAAGKERELVATITSRGGITYYADSVKGRFTISRDNAKNTVYLQMNSLKPEDTAVYYCNTEDGTTPQYGYDQGMYYWGQGTQVTVSS test_value="low polyreactivity"
sequence_chain=QVQLVESGGGLVQAGGSLRLSCAASGSIFLNYAMGWYRQAPGKERELVAGISNGGSTNYADSVKGRFTISRDNAKYTVYLQMNSLKPEDTAVFYCARPGYKSRGKRFDYWGQGTQVTVSS test_value="low polyreactivity"
sequence_chain=QVQLVESGGGLVQAGGSLRLSCAASGMIFGYYAMGWYRQAPAKERELVAAITGSGGRTYYADSVKGRFTISRDNAKNTVYLQMNSLKTEDTAVYYCADRGVNGMGYWGQGTHVTVSS test_value="high polyreactivity"
sequence_chain=QVQLQESGGLVQAGGLRLSCAASGSVSYQEAMGWYRQAPGKERELVATISFGAKTNYADSVKGRFTISRDNAKNTVYLHINSLNPEDTAVYYCAAESLFDDYYGYWGQGTQVTVSS test_value="low polyreactivity"
sequence_chain=QVQLVESGGGLVQAGGSRRLSCAASGLIFVHYTMGWYRQATGKERELVAAITSSGGSTYYAYSVKGRFTISRDNAKNTVYLEMNSMKPEDTAVYYCATKSYSPTRTRFYYWGQGTQVTVSS test_value="high polyreactivity"
sequence_chain=QVQLVESGGGLVQAGGSLRLSCAASGFTLSRYAMGWYRQAPGKERELVAAISSSGDSTYYADSVKGRFTISRDNAKNTVYLQMNSLKPEDTAVYYCNVYTYHRYDYWGQGTQVTVSS test_value="high polyreactivity"

## Task Return polyreactivity (PSR sort gate) for the following sequence: "QVQLVESGGGLVQAGGSLRLSCAASGSTFSYNAMGWYRQAPGKERELVAAISRGDVSTYYADSVKGRFTISRDNAKNTVYLQMNSLKPEDTAVYYCADYWYGSQYKWRYDYWGQGTQVTVSS"
## Result low polyreactivity

## Task Return polyreactivity (PSR sort gate) for the following sequence: "QVQLVASGGGLVQAGGSLRLSCAASGGTFFYNAKGWYRQAPGKERELVAAINGGTSTNYADSVKGRFTISRDNAKNTDYLQRNSLKPEDTAVYYCAAVYRRLGRSDWYDYWGQGTQVTVSS"
## Result low polyreactivity

## Task Return polyreactivity (PSR sort gate) for the following sequence: "QVQLVESGGGLVQAGGSLRLSCAASGTFYRNAMGWYRQAPGKERELVAAISSGSNTDYADSVKGRFTISRDNAKNTVYLQMNSLKPEDTAVYYCAADSLARRYDYWGQGTQVTVSS"
## Result low polyreactivity

## Task Return polyreactivity (PSR sort gate) for the following sequence: "QVHLVESGGALVQAGGSLRLSCAASGLTFVTNSMGWYRQAPGKERELVAAISLGGGSTYYADSVKGRFTISLDNAKNTVYLQMNSLKPEDTAVYYCAAVPGWVRQAVGWVLSLLDYCGQGTQVTVSS"
## Result low polyreactivity

## Task Return polyreactivity (PSR sort gate) for the following sequence: "QVQLVESGGGLVHAGGSLRLSCAASGRIFTSYVMGWYRQAPAKERELVAAITRSGGSTYYADSVKGRFTISRDNAKNTVYLQMISLKPEDTAVYYCNALTRRQKGGEGGGYWGQGTQVTVSS"
## Result high polyreactivity

====

experiment: yeast display, Sf9 membrane polyspecificity reagent, FACS + sequencing; frameworks hold sequencing errors
PROPERTY LABEL: polyreactivity (PSR sort gate)

Example cases with answers are listed next.
sequence_chain=RVQLVESGGGLVQAGGSHRLSCAASGRIFKNYAIGWYRQAPGKQRELVASITIGSTTYAESEKGRFTISRDNAKNTVYLKMNSLKREDTAVYYCAARRPRGFQGPNPWGYYYWGQGTQVTVSS property_label="polyreactivity (PSR sort gate)" test_value="high polyreactivity"
sequence_chain=QFQLVESGGGLVQAGGSLRLSCAASGSIFGYYDMGWYRQAPGKERELVAAISWSGDTTYYADSVKGRFTISRDNAKNTVDLQMNILTPEDTAVYYCSAEFYDWLGGMGYWGQGTQVNVSS property_label="polyreactivity (PSR sort gate)" test_value="low polyreactivity"
sequence_chain=QVQLVESGGGLVQAGGSLRLSCAASGRIFWPYAMGWYRPAPGKERELVAAITSGGSTYYADSVKGRFTISRDNAKNTVYLQMNSLKPEVTAVYYCAKRSSGVSVPVAYGGIKRYNSWGQGTQVTVSS property_label="polyreactivity (PSR sort gate)" test_value="low polyreactivity"
sequence_chain=QVQLVESGGGLVQAGGSLRLSCAASGRIFASYAMGWYRQAPGKERELVAAISLSGGSTYYADSVKGRFTISRDNAKNTVYLQMNSLKPEDTAVYYCAAKNYRRYRDYYWGQGTQVTVSS property_label="polyreactivity (PSR sort gate)" test_value="high polyreactivity"

Next sequence, please.
## Task Return polyreactivity (PSR sort gate) for the following sequence: "QVQLVESGGGLVQAGGSLRLSCAASGSTLGYYAMGWYRQAPGKERELVAAISGRGTSTYYADSVKGRFTISRDNAKTTVYLQMNSLKPEDSAVFYCAAQLFRELYWGQGTQVNVSS"
## Result high polyreactivity

====

assay: yeast display, Sf9 membrane polyspecificity reagent, FACS + sequencing; frameworks hold sequencing errors
PROPERTY LABEL: polyreactivity (PSR sort gate)

Example cases with answers are listed next.
sequence_chain=QVQLVESGGGLVQAGGSLSLICAASGRNFYTYAMGWYRQAPGKERELVAAISWSGGSTYYADSVKGRFTISRDNAKNTVYLQMNSLNPEDTAVYYCNARFRFGWPGYDYWGQGTQVTVSS property_label="polyreactivity (PSR sort gate)" test_value="high polyreactivity"
sequence_chain=QVQLVESCGGLVQAGGSLRLSCAASGSIFRSFAMGWYREAPWKERELVAAISSGGRTKYADSVKGRFTISRDNAKNTVYLQMNSLKPEDTAVYYCAARVNVKYYGFYYWGQGTQVTVSS property_label="polyreactivity (PSR sort gate)" test_value="high polyreactivity"
sequence_chain=QVQLVESGGGLVQAGGILRLSCAASGSTFGYYAMGWYRPAPGKERELVAAIRSDDITYYADSVKGRFTISRDNAKNTVYLQMISLKPEDTAVYYCAVSQRYGGRRGCYWGQGTQVTVSS property_label="polyreactivity (PSR sort gate)" test_value="low polyreactivity"
sequence_chain=QVQLVESGGGLLQAGGSLRLSCAASGGTFSLNVMGWYRQAPGKEREFVATITYSGGSTYYADSVKGRFTISRDNAKNTVYLQMKSLKPEDTAVYYCAASFTYSQVTEPYGYWGQGSQVTVSS property_label="polyreactivity (PSR sort gate)" test_value="low polyreactivity"

## Task Return polyreactivity (PSR sort gate) for the following sequence: "QVQLVESGGGLVQAGGSLRLSCAASGSTFSKYAMGWYRQAPGKERELVATISSTGSTNYADSVKGRFTISRDNEKNTVYLQMNSLKPEDTAVYDCNAGRRGRPYYKYYYWGQGTQVTVSS"
## Result high polyreactivity
